# Assay info: Aqueous solubility of the compound at pH 6.8 incubated for 24 hrs under shaking condition by LC-UV analysis
# Assay type: physicochemical
# Test conditions: aqueous medium
Readout name: solubility thermodynamic at 24 h

Q. Need solubility thermodynamic at 24 h, item CN(C)C(=O)c1cccc2ccccc12
A. > 43 µg/mL

Q. Need solubility thermodynamic at 24 h, item CN(C)C(=O)Cc1ccc2cc[nH]c2c1
A. > 51 µg/mL

Q. Need solubility thermodynamic at 24 h, item COC(=O)c1ccc2c(C(=O)c3ccccc3)c[nH]c2c1
A. < 1 µg/mL

Q. Need solubility thermodynamic at 24 h, item NC(=O)C1CCN(C(=O)c2ccc3cccccc2-3)CC1
A. > 58 µg/mL

Q. Need solubility thermodynamic at 24 h, item COC(=O)c1ccc2c(C(=O)c3ccccc3)cn(C(=O)c3ccccc3)c2c1
A. < 1 µg/mL

Q. Need solubility thermodynamic at 24 h, item COC(=O)c1ccc2ccc(C(=O)Nc3ccccc3)c-2cc1
A. < 1 µg/mL

Q. Need solubility thermodynamic at 24 h, item NC(=O)C1CCN(C(=O)c2cccc3ccccc23)CC1
A. > 71 µg/mL

Q. Need solubility thermodynamic at 24 h, item COC(=O)c1ccc2c(c1)c(C(=O)c1ccccc1)cn2C(=O)c1ccccc1
A. < 1 µg/mL

Q. Need solubility thermodynamic at 24 h, item COC(=O)c1ccc2ccn(C(=O)c3ccccc3)c2c1
A. < 1 µg/mL
